The reported numbers originate from patent US20220306762A1.

Each entry below carries its reported FACs 10 ug/ml (percent gated).
# targetOfAssay: T1, murine CD38 on transiently transfected Expi293 cells (Origene MC208001) (murine, UniProt P56528 1-304)
# T1 construct: whole, on cells; also called Murine (FACs)
# T1 sequence (looked up): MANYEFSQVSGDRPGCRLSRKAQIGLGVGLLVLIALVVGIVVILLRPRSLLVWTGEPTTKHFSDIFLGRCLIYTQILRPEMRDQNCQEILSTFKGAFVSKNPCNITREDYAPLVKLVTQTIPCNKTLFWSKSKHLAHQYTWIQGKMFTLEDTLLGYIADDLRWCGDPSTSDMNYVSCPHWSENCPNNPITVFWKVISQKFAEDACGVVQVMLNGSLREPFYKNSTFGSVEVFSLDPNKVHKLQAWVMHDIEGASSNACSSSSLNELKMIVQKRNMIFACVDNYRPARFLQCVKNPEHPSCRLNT
# assaySummary: flow cytometry, transfected Expi293 cells;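 further: antibody binding to Expi293 cells transiently expressing human or murine CD38, antibodies applied at 10 ug/ml for 60 min on ice, read by flow cytometry as percent gated cells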
All answers are understood in %, so give the number only.

Here is how some binders turned out for FACs 10 ug/ml (percent gated).
binder	valueUnit	FACs 10 ug/ml (percent gated)
40769p1.2.B10 (scFv, V domains shown, tested as scFv-Fc supernatant) VH: EVQLLESGGGLVQPGGSLRLSCPASGFDFSSYWMTWVRQAPGKGLEWVSTITDSGGRAWYADSVRGRFTISRDNSKNTLYLQMNSLRAEDTAVYYCARDTPKTYYYYAMDVWGQGTTVTV VL: QSALTQPPSASGTPGQRVTISCSGSSSNIQYSYVSWYQQLPGTAPKLLIYNNVQRPSGVPDRFSGSKSGTSASLAISGLQSEDEADYYCATWDESLLGLWVFGGGTKLTVL	%	4.81
40769p1.1.G12 (scFv, V domains shown, tested as scFv-Fc supernatant) VH: EVQLLESGGGLVQPGGSLRLSCAASGFTFDDYVMSWVRQAPGKGLEWVSEISESDGSNKYYADSVKGRFIISRDNSKNTLYLQMNSLRAEDTAVYYCARLEPEKYYGMDVWGQGTTVTVSS VL: QSVLTQPPSASGTPGQRVTISCSGSNSNIGNNLVSWYQQLPGTAPKLLIYRHDHRPSGVPDRFSGSKSGTSASLAISGLQSEDEADYYCATWDDSLNGRAFGGGTKLTVL	%	0.16
40617p1.2.H8 (scFv, V domains shown, tested as scFv-Fc supernatant) VH: EVQLLESGGGLVQPGGSLRLSCAASGFTFSSYWMTWVRQAPGKGLEWVSAISSYGGNYMYYADSVKGRFTISRDNSKDTLYLQMNSLRAEDTAVYYCAKDWDDGMDVWGQGTTVTVSS VL: EIVMTQSPATLSVSPGDRATLSCRASQSVNSKLAWYQQKPGQAPRLLIYAASSRATGIPDRFSGSGSGTDFTLTISRLEPEDFAVYYCQQYYDLPPYSFGGGTKVEIK	%	68.4

Now look at this one.
Ask: Look up FACs 10 ug/ml (percent gated): 40596p1.F6 (scFv, V domains shown, tested as scFv-Fc supernatant) VH: EVQLLESGGGLVQPGGSLRLSCAASGFDFSKNAMSWVRQAPGKGLEYVAGSGWSGSFIFYADSVKGRFTVSRDNSENTLYLQMSSLRAEDTAVYYCAKNPGFGEMDVWGQGTTVTVSS VL: EIVLTQSPGSLFLSPGERATLTCRASQTIGSNLAWYQQKFGQAPRLLIYGASTRAADIPDRFSGSGSGTEFTLTISSLQSEDFAVYYCQQYNSWPPLTFGGGTKVEIK
Result: 68.6
